# assay-comment: Pharmacokinetics in dogs (plasma concentration by HPLC)
# Type: in vivo, dog (beagle)
# condition-set: dog, plasma, po, 2 mg/kg/day, Dog 3, day 5, 4 h; 2 mg/kg/day PO
recorded-endpoint: concentration at 4 h (ng/mL)
Your answer is read as ng/mL, so omit the unit and give the number.

## Input Please give the measured concentration at 4 h for this compound: c1cc(Nc2nccc(-c3cccs3)n2)cc(OCCn2ccnc2)c1
## Output 114

====

# assay-comment: Pharmacokinetics in dogs (plasma concentration by HPLC)
# Assay type: in vivo, dog (beagle)
# condition-set: dog, plasma, po, 2 mg/kg/day, Dog 4, day 1; 2 mg/kg/day PO
recorded-endpoint: half-life (h)
Your answer is read as h, so omit the unit and give the number.

## Input Please give the measured half-life for this compound: c1cc(Nc2nccc(-c3cccs3)n2)cc(OCCn2ccnc2)c1
## Output 1.64

====

# assay-comment: Pharmacokinetics in dogs (plasma concentration by HPLC)
# Format: in vivo, dog (beagle)
# condition-set: dog, plasma, po, 2 mg/kg/day, Dog 2, day 5, 7 h; 2 mg/kg/day PO
recorded-endpoint: concentration at 7 h

## Input Please give the measured concentration at 7 h for this compound: c1cc(Nc2nccc(-c3cccs3)n2)cc(OCCn2ccnc2)c1
## Output < 30 ng/mL

====

# assay-comment: Pharmacokinetics in dogs (plasma concentration by HPLC)
# Format: in vivo, dog (beagle)
# condition-set: dog, plasma, po, 2 mg/kg/day, Dog 1, day 5, 2 h; 2 mg/kg/day PO
recorded-endpoint: concentration at 2 h (ng/mL)

1: c1cc(Nc2nccc(-c3cccs3)n2)cc(OCCn2ccnc2)c1
2: Cc1cc(Nc2nccc(-c3ccncc3)n2)ccc1N.Cl.Cl [Compound 2, reference compound]
## Input Param pair: 1 , 2 . Output: the one whose concentration at 2 h is numerically greater. Write the label of whichever entry you select.
## Output 1

====

# assay-comment: Pharmacokinetics in dogs (plasma concentration by HPLC)
# Assay type: in vivo, dog (beagle)
# condition-set: dog, plasma, po, 2 mg/kg/day, Mean of 4 dogs, day 1, 4 h; 2 mg/kg/day PO
recorded-endpoint: concentration at 4 h (ng/mL)
Your answer is read as ng/mL, so omit the unit and give the number.

## Input Please give the measured concentration at 4 h for this compound: c1cc(Nc2nccc(-c3cccs3)n2)cc(OCCn2ccnc2)c1
## Output 188

====

# assay-comment: Pharmacokinetics in dogs (plasma concentration by HPLC)
# Format: in vivo, dog (beagle)
# condition-set: dog, plasma, po, 2 mg/kg/day, Dog 2, day 5; 2 mg/kg/day PO
recorded-endpoint: AUC(0-t) (ng·h/mL)

A: c1cc(Nc2nccc(-c3cccs3)n2)cc(OCCn2ccnc2)c1
B: Cc1cc(Nc2nccc(-c3ccncc3)n2)ccc1N.Cl.Cl [Compound 2, reference compound]
## Input Between item A and item B , which reported AUC(0-t) is smaller? Write the label of whichever entry you select.
## Output B
(B: 190 ng·h/mL, A: 447 ng·h/mL)

====

# assay-comment: Pharmacokinetics in dogs (plasma concentration by HPLC)
# Assay type: in vivo, dog (beagle)
# condition-set: dog, plasma, po, 2 mg/kg/day, Mean, day 1; 2 mg/kg/day PO
recorded-endpoint: Cmax (ng/mL)

* c1cc(Nc2nccc(-c3cccs3)n2)cc(OCCn2ccnc2)c1 | 405
* Cc1cc(Nc2nccc(-c3ccncc3)n2)ccc1N.Cl.Cl [Compound 2, reference compound] | 509

====

# assay-comment: Pharmacokinetics in dogs (plasma concentration by HPLC)
# Format: in vivo, dog (beagle)
# condition-set: dog, plasma, po, 2 mg/kg/day, Dog 3, day 5, 7 h; 2 mg/kg/day PO
recorded-endpoint: concentration at 7 h

## Input Please give the measured concentration at 7 h for this molecule: c1cc(Nc2nccc(-c3cccs3)n2)cc(OCCn2ccnc2)c1
## Output < 30 ng/mL

====

# assay-comment: Pharmacokinetics in dogs (plasma concentration by HPLC)
# Assay type: in vivo, dog (beagle)
# condition-set: dog, plasma, po, 2 mg/kg/day, one dog (Dog 1), day 5, 7.0 h; 2 mg/kg/day PO; heading: Plasma concentration
recorded-endpoint: concentration at 7 h

## Input Please give the measured concentration at 7 h for this compound: CCN(CC)CCOc1ccc(Nc2nccc(-c3ccncc3)n2)cc1.Cl.Cl [Compound 3, reference compound]
## Output < 30 ng/mL

====

# assay-comment: Pharmacokinetics in dogs (plasma concentration by HPLC)
# Assay type: in vivo, dog (beagle)
# condition-set: dog, plasma, po, 2 mg/kg/day, Dog 2, day 1, 4 h; 2 mg/kg/day PO
recorded-endpoint: concentration at 4 h (ng/mL)
Your answer is read as ng/mL, so omit the unit and give the number.

## Input Please give the measured concentration at 4 h for this compound: c1cc(Nc2nccc(-c3cccs3)n2)cc(OCCn2ccnc2)c1
## Output 161

====

# assay-comment: Pharmacokinetics in dogs (plasma concentration by HPLC)
# Format: in vivo, dog (beagle)
# condition-set: dog, plasma, po, 2 mg/kg/day, Mean of 4 dogs, day 1, 12 h; 2 mg/kg/day PO
# Description: Since dogs are used in toxicology studies of antiasthma compounds, this species is chosen for pharmacokinetic evaluations. […] Heparinized blood samples are obtained from each animal on the first, third and fifth day of dosage at 0.5, 1.0, 2.0, 4.0, 7.0, 12.0 and 24.0 hours after the dose. The samples are centrifuged immediately to obtain plasma which is frozen until analyzed. […]
recorded-endpoint: concentration at 12 h

## Input Please give the measured concentration at 12 h for this compound: c1cc(Nc2nccc(-c3cccs3)n2)cc(OCCn2ccnc2)c1
## Output < 30 ng/mL

====

# assay-comment: Pharmacokinetics in dogs (plasma concentration by HPLC)
# Format: in vivo, dog (beagle)
# condition-set: dog, plasma, po, 2 mg/kg/day, Mean of 4 dogs, day 5, 7 h; 2 mg/kg/day PO
recorded-endpoint: concentration at 7 h

## Input Please give the measured concentration at 7 h for this compound: c1cc(Nc2nccc(-c3cccs3)n2)cc(OCCn2ccnc2)c1
## Output < 30 ng/mL

====

# assay-comment: Pharmacokinetics in dogs (plasma concentration by HPLC)
# Type: in vivo, dog (beagle)
# condition-set: dog, plasma, po, 2 mg/kg/day, one dog (Dog 1), day 3; 2 mg/kg/day PO; read-out: AUC0-4
recorded-endpoint: AUC(0-t) at 4 h (ng·h/mL)
Your answer is read as ng·h/mL, so omit the unit and give the number.

## Input Please give the measured AUC(0-t) at 4 h for this molecule: CCN(CC)CCOc1ccc(Nc2nccc(-c3ccncc3)n2)cc1.Cl.Cl [Compound 3, reference compound]
## Output 362

====

# assay-comment: Pharmacokinetics in dogs (plasma concentration by HPLC)
# Format: in vivo, dog (beagle)
# condition-set: dog, plasma, po, 2 mg/kg/day, Dog 2, day 3, 7 h; 2 mg/kg/day PO
# Experimental: Since dogs are used in toxicology studies of antiasthma compounds, this species is chosen for pharmacokinetic evaluations. […] Heparinized blood samples are obtained from each animal on the first, third and fifth day of dosage at 0.5, 1.0, 2.0, 4.0, 7.0, 12.0 and 24.0 hours after the dose. The samples are centrifuged immediately to obtain plasma which is frozen until analyzed. […]
recorded-endpoint: concentration at 7 h

## Input Please give the measured concentration at 7 h for this compound: c1cc(Nc2nccc(-c3cccs3)n2)cc(OCCn2ccnc2)c1
## Output < 30 ng/mL

====

# assay-comment: Pharmacokinetics in dogs (plasma concentration by HPLC)
# Assay type: in vivo, dog (beagle)
# condition-set: dog, plasma, po, 2 mg/kg/day, Dog 3, day 1, 1 h; 2 mg/kg/day PO
recorded-endpoint: concentration at 1 h (ng/mL)

* c1cc(Nc2nccc(-c3cccs3)n2)cc(OCCn2ccnc2)c1 | 325
* Cc1cc(Nc2nccc(-c3ccncc3)n2)ccc1N.Cl.Cl [Compound 2, reference compound] | 234

====

# assay-comment: Pharmacokinetics in dogs (plasma concentration by HPLC)
# Type: in vivo, dog (beagle)
# condition-set: dog, plasma, po, 2 mg/kg/day, Mean, day 1; 2 mg/kg/day PO
recorded-endpoint: half-life (h)

1: c1cc(Nc2nccc(-c3cccs3)n2)cc(OCCn2ccnc2)c1
2: Cc1cc(Nc2nccc(-c3ccncc3)n2)ccc1N.Cl.Cl [Compound 2, reference compound]
## Input Param pair: 1 , 2 . Output: the one whose half-life is numerically greater. Write the label of whichever entry you select.
## Output 1
(1: 2.27 h, 2: 0.65 h)

====

# assay-comment: Pharmacokinetics in dogs (plasma concentration by HPLC)
# Assay type: in vivo, dog (beagle)
# condition-set: dog, plasma, po, 2 mg/kg/day, Dog 1, day 3, 1 h; 2 mg/kg/day PO
recorded-endpoint: concentration at 1 h (ng/mL)

a: c1cc(Nc2nccc(-c3cccs3)n2)cc(OCCn2ccnc2)c1
b: Cc1cc(Nc2nccc(-c3ccncc3)n2)ccc1N.Cl.Cl [Compound 2, reference compound]
## Input Between item a and item b , which reported concentration at 1 h is smaller? Write the label of whichever entry you select.
## Output a
